runDescription: in vivo
Parameters: species or system BALB/c nude mice
studyConditions: mouse, Stomach uptake
Numbered stars: 1 amine (or outer) side, 2 acyl side, 3 side chain; on linkers, the order of the positions; unused ones are H or OH. Square brackets hold non-standard residues; d marks the D form. Peptide text beside a SMILES is read from it. * marks the point of attachment. DOTA = O=C(O)CN1CCN(CC(=O)O)CCN(CC(=O)*)CCN(CC(=O)O)CC1; d(γGlu) = O=C(O)[C@@H](CCC(=O)[*:2])N[*:1]; 1Nal = N[C@@H](Cc1cccc2ccccc12)C(=O)O; NMeNle = CCCC[C@H](NC)C(=O)O; PEG4 = NCCOCCOCCOCCOCCC(=O)O

[
  {
    "compound": "CCCC[C@@H](C(=O)N[C@@H](CC(=O)O)C(=O)N[C@@H](Cc1cccc2ccccc12)C(N)=O)N(C)C(=O)[C@H](Cc1c[nH]c2ccccc12)NC(=O)CCOCCOCCOCCOCCNC(=O)CC[C@@H](NC(=O)CN1CCN(CC(=O)O)CCN(CC(=O)O)CCN(CC(=O)O)CC1)C(=O)O [[68Ga]Ga-DOTA-CCK-66, metal not drawn, reference compound] ({DOTA-d(γGlu)-PEG4}-W[NMeNle]D[1Nal]-NH2)",
    "tissue uptake at 2 h": "1.63 %ID/g"
  }
]

* * *

runDescription: in vivo
Design: species or system BALB/c nude mice
studyConditions: mouse, Kidney uptake
Numbered stars: 1 amine (or outer) side, 2 acyl side, 3 side chain; on linkers, the order of the positions; unused ones are H or OH. Square brackets hold non-standard residues; d marks the D form. Peptide text beside a SMILES is read from it. * marks the point of attachment. DOTA = O=C(O)CN1CCN(CC(=O)O)CCN(CC(=O)*)CCN(CC(=O)O)CC1; d(γGlu) = O=C(O)[C@@H](CCC(=O)[*:2])N[*:1]; 1Nal = N[C@@H](Cc1cccc2ccccc12)C(=O)O; NMeNle = CCCC[C@H](NC)C(=O)O; PEG4 = NCCOCCOCCOCCOCCC(=O)O

[
  {
    "compound": "CCCC[C@@H](C(=O)N[C@@H](CC(=O)O)C(=O)N[C@@H](Cc1cccc2ccccc12)C(N)=O)N(C)C(=O)[C@H](Cc1c[nH]c2ccccc12)NC(=O)CCOCCOCCOCCOCCNC(=O)CC[C@@H](NC(=O)CN1CCN(CC(=O)O)CCN(CC(=O)O)CCN(CC(=O)O)CC1)C(=O)O [[68Ga]Ga-DOTA-CCK-66, metal not drawn, reference compound] ({DOTA-d(γGlu)-PEG4}-W[NMeNle]D[1Nal]-NH2)",
    "tissue uptake at 2 h (%ID/g)": 6.4
  }
]

* * *

runDescription: in vivo
Parameters: species or system BALB/c nude mice
studyConditions: female, BALB/c nude, mouse, iv, 3.7 MBq, total radioactivity, Tumor-to-Blood ratio (T/B)
Numbered stars: 1 amine (or outer) side, 2 acyl side, 3 side chain; on linkers, the order of the positions; unused ones are H or OH. Square brackets hold non-standard residues; d marks the D form. Peptide text beside a SMILES is read from it. * marks the point of attachment. DOTA = O=C(O)CN1CCN(CC(=O)O)CCN(CC(=O)*)CCN(CC(=O)O)CC1; d(γGlu) = O=C(O)[C@@H](CCC(=O)[*:2])N[*:1]; 1Nal = N[C@@H](Cc1cccc2ccccc12)C(=O)O; NMeNle = CCCC[C@H](NC)C(=O)O; PEG4 = NCCOCCOCCOCCOCCC(=O)O

[
  {
    "compound": "CCCC[C@@H](C(=O)N[C@@H](CC(=O)O)C(=O)N[C@@H](Cc1cccc2ccccc12)C(N)=O)N(C)C(=O)[C@H](Cc1c[nH]c2ccccc12)NC(=O)CCOCCOCCOCCOCCNC(=O)CC[C@@H](NC(=O)CN1CCN(CC(=O)O)CCN(CC(=O)O)CCN(CC(=O)O)CC1)C(=O)O [[68Ga]Ga-DOTA-CCK-66, metal not drawn, reference compound] ({DOTA-d(γGlu)-PEG4}-W[NMeNle]D[1Nal]-NH2)",
    "tissue to tissue ratio at 0.5 h": 2.48
  }
]
